Entries and their measured koff follow.
biological target: His-tagged BACE1 protein (Example 15) (Homo sapiens (Human), UniProt P56817 22-457); experiment: SPR (Biacore T200), Fab on captured His-BACE1;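 note: Single-cycle kinetics with serially diluted Fab flowed over BACE1 captured by anti-His antibody on a CM5 chip, rates fitted to a one-to-one Langmuir model, Kd derived as koff over kon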
Sequence (P56817 22-457 limits assumed): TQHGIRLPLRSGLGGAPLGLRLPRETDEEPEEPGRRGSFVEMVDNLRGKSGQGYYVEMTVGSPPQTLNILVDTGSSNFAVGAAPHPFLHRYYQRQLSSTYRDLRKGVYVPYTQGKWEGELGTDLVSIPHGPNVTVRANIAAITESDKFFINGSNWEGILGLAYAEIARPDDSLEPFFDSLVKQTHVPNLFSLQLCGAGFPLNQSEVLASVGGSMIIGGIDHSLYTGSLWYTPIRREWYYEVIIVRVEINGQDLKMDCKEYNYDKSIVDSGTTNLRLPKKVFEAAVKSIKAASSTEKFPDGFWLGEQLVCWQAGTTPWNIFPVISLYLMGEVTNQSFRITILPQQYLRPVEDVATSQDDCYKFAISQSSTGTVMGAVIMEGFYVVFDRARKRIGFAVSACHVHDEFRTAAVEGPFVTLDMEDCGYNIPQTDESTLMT
Could you give me the number in s⁻¹? Just the number is fine.

{"columns": ["binder", "readout kind", "numeric readout"],
 "data": [
  ["6266.8 Fab (Fab, V domains shown, not tied singly) VH: QVQLVQSGAEVKKPGSSVKVSCKASGGTLKGYGVSWVRQAPGQGLEWMGNIIPGFGTANYAQKFQGRVTITADESTSTAYMELSSLRSEDTAVYYCARGGGTKYGMLDVWGQGTMVTVSS VL: EIVMTQSPATLSVSPGERATLSCRASQSVSSNLAWYQQKPGQAPRLLIYGASTRAYGIPARFSGSGSGTEFTLTISSLQSEDFAVYYCQQLILWPPRTFGGGTKVEIK", "koff", 0.000275]
]}

Quick one: koff for 6266.2 Fab (Fab, V domains shown) VH: QVQLVQSGAEVKKPGSSVKVSCKASGGTLSHYGVSWVRQAPGQGLEWMGNIIPGIGTANYAQKFQGRVTITADESTSTAYMELSSLRSEDTAVYYCARSGGTKYGMLDVWGQGTMVTVSS VL: EIVMTQSPATLSVSPGERATLSCRASQSVSSNLAWYQQKPGQAPRLLIYGASKRATGIPARFSGSGSGTEFTLTISSLQSEDAAVYYCQQLILWPPRTFGGGTKVEIK ?
0.000142

Consider the binder shown here: 6266wt (Fab, V domains shown, also called ADI6266) VH: QVQLVQSGAEVKKPGSSVKVSCKASGGTLSGYGVSWVRQAPGQGLEWMGNIIPGFGTANYAQKFQGRVTITADESTSTAYMELSSLRSEDTAVYYCARSGGTKYGMLDVWGQGTMVTVSS VL: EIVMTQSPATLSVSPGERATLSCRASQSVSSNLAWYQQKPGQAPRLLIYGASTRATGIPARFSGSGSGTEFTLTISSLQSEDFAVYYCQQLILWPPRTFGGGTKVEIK What is its recorded koff?
0.000403

Ref: patent US20180057604A1
